experimental system: Protein RecA (Mycobacterium tuberculosis, UniProt P9WHJ3)
test details: Fluorescence Cell-Free Homogeneous Dose Retest to Identify Inhibitors of RecA-Intein Splicing Activity. [Related pubchem assays (depositor defined):AID2097, AID2223, AID489010, AID492950]
Assay type: functional
Activity calls are given as the source filed them.
Possible outcomes: active, inactive

INSERT INTO measurements (compound, cat) VALUES
  ('Cc1ccc(NC2=C(NCCO)C(=O)c3ccccc3C2=O)cc1', 'active'),
  ('CCOc1ccc(N2C(=O)/C(=C\c3ccc(OC)c(O)c3)S(=O)(=O)C2c2cccc([N+](=O)[O-])c2)cc1 (stereo not drawn)', 'active'),
  ('CC(=O)Nc1cc(OC(=O)c2ccco2)cc(OC(=O)c2ccco2)c1', 'active'),
  ('Cc1ccc(C[n+]2c(-c3ccc(C)cc3)cc(-c3ccc(C)cc3)cc2-c2ccc(C)cc2)cc1.[O-][Cl+3]([O-])([O-])[O-]', 'active'),
  ('Fc1ccc(-[n+]2nc(Nc3ccccc3)sc2-c2c3ccccc3cc3ccccc23)cc1', 'active'),
  ('CCS(=O)(=O)c1ncc(Cl)c(C(=O)Nc2ccc(S(=O)(=O)N3CCC(C)CC3)cc2)n1', 'active'),
  ('Cc1nn(C(=O)CNS(=O)(=O)c2ccccc2)c(C)c1Sc1ccc(Cl)cc1', 'active'),
  ('COc1cc(C=C2C(=O)c3ccccc3C2=O)ccc1O', 'active'),
  ('Cc1ccc(N2C(=O)NC(=O)/C(=C/c3ccc(OC(=O)c4cccs4)cc3)C2=O)cc1', 'active'),
  ('Cc1nccn1-c1c([N+](=O)[O-])c(=O)n(C)c2ccccc12', 'active'),
  ('Cc1n[nH]c(O)c1[C@@H](c1ccccc1[N+](=O)[O-])C(C#N)C#N', 'active'),
  ('CSc1nc(-c2ccc(Cl)cc2)nn1C(=O)c1ccco1', 'inactive'),
  ('O=C(O)CCCN1C(=O)/C(=C\C(Cl)=C\c2ccccc2)SC1=S', 'active');

====

experimental system: Mu-type opioid receptor (Homo sapiens, UniProt P35372);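 also: U2OS cells expressing OPRM1 and beta-arrestin as split beta-galactosidase partners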
Sequence (P35372 whole entry): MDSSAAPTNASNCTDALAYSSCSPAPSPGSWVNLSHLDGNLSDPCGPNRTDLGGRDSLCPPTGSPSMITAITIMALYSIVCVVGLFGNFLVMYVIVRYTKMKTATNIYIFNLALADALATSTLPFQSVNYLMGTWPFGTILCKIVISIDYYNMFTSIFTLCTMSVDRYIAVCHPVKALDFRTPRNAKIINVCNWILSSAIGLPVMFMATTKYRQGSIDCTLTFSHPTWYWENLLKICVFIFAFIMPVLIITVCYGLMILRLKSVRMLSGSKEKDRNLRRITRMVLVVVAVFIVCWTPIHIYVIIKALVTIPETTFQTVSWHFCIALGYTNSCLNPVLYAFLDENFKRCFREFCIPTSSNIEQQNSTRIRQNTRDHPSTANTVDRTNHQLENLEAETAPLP
test details: Counterscreen for agonists of heterodimerization of the mu 1 (OPRM1) and delta 1 (OPRD1) opioid receptors: Luminescence-based cell-based high throughput dose response assay to identify agonists of OPRM1 homodimerization.
Format: functional
Active and inactive are the calls of the source.
Possible outcomes: active, inactive

INSERT INTO measurements (compound, experimental_system, cat) VALUES
  ('CN1CCN(c2ccc(NC(=O)c3ccc(-c4ccc(Br)cc4)o3)cc2)CC1', 'Mu-type opioid receptor (Homo sapiens, UniProt P35372)', 'active'),
  ('Cc1cc(Cl)ccc1OCC(=O)N[C@@H](Cc1ccccc1)c1nc2ccccc2[nH]1', 'Mu-type opioid receptor (Homo sapiens, UniProt P35372)', 'inactive'),
  ('COCCN(C(=O)C1CC(=O)N(Cc2ccccc2)C1)c1nc(-c2ccc([N+](=O)[O-])cc2)cs1 (stereo not given)', 'Mu-type opioid receptor (Homo sapiens, UniProt P35372)', 'inactive'),
  ('Cc1cccc(OCCC(=O)NCC(c2ccccc2)N(C)C)c1 (stereo not given)', 'Mu-type opioid receptor (Homo sapiens, UniProt P35372)', 'inactive'),
  ('Cc1ccc2c(C)c(C(=O)N(Cc3cccs3)C3CCS(=O)(=O)C3)oc2c1 (stereo not given)', 'Mu-type opioid receptor (Homo sapiens, UniProt P35372)', 'inactive');

Just for reference, ChEMBL document CHEMBL1201862 is where these values come from.
